Measured values drawn from ChEMBL document CHEMBL5634143 for this set.

tested on: Staphylococcus epidermidis; assay: Antibacterial activity against Staphylococcus epidermidis 1457 assessed as inhibition of biofilm formation at 10 ug/ml incubated for 5 hrs by confocal microscopic analysis; format: functional, organism-based; conditions: dose 10.0 µg/ml
Active and inactive are the calls of the source. The calls are words filed in the database; no cut-off is given here.
ASSAY METRIC: Activity

CN[C@H](CC(C)C)C(=O)N[C@H]1C(=O)N[C@@H](CC(N)=O)C(=O)N[C@H]2C(=O)N[C@H]3C(=O)N[C@H](C(=O)N[C@H](C(=O)O)c4cc(O)cc(O)c4-c4cc3ccc4O)[C@H](O)c3ccc(c(Cl)c3)Oc3cc2cc(c3O[C@@H]2O[C@H](CO)[C@@H](O)[C@H](O)[C@H]2O[C@H]2C[C@](C)(N)[C@H](O)[C@H](C)O2)Oc2ccc(cc2Cl)[C@H]1O
Active
CCCC[C@@H]1NC(=O)[C@H](C)NC(=O)[C@H](NC(=O)[C@H](CO)NC(=O)[C@@H](NC(=O)[C@H](NC(=O)[C@@H](CCC(N)=O)NC(=O)[C@H](CO)NC(=O)[C@@H](NC(=O)[C@@H](Cc2ccccc2)NC)[C@@H](C)CC)[C@@H](C)CC)[C@@H](C)CC)[C@H](C)OC(=O)[C@H]([C@@H](C)CC)NC1=O
Active
CC[C@H](C)[C@H](NC(=O)[C@@H](Cc1ccccc1)NC)C(=O)N[C@@H](CCCNC(=N)N)C(=O)N[C@H](CCCNC(=N)N)C(=O)N[C@@H](C(=O)N[C@H](C(=O)N[C@@H](CO)C(=O)N[C@H]1C(=O)N[C@@H](C)C(=O)N[C@@H](C2CCCCC2)C(=O)N[C@@H]([C@@H](C)CC)C(=O)O[C@H]1C)[C@@H](C)CC)[C@@H](C)CC
Active

----------
test system: Staphylococcus aureus; assay: Antibacterial activity against methicilin-resistant Staphylococcus aureus 21455 assessed as inhibition of bacterial growth; format: functional
Each record here notes measured MIC.
Give your result in µg/mL as a bare value.

Sample records with MIC:
CC[C@H](C)[C@H](NC(=O)[C@@H](Cc1ccccc1)NC)C(=O)N[C@@H](CCCNC(=N)N)C(=O)N[C@H](CCCNC(=N)N)C(=O)N[C@@H](C(=O)N[C@H](C(=O)N[C@@H](CO)C(=O)N[C@H]1C(=O)N[C@@H](C)C(=O)N[C@@H](C2CCCCC2)C(=O)N[C@@H]([C@@H](C)CC)C(=O)O[C@H]1C)[C@@H](C)CC)[C@@H](C)CC
0.25
CCC[C@@H]1NC(=O)[C@H](CCCNC(=N)N)NC(=O)[C@H](NC(=O)[C@H](CO)NC(=O)[C@@H](NC(=O)[C@H](NC(=O)[C@@H](CCCNC(=N)N)NC(=O)[C@H](CCCNC(=N)N)NC(=O)[C@@H](NC(=O)[C@@H](Cc2ccccc2)NC)[C@@H](C)CC)[C@@H](C)CC)[C@@H](C)CC)[C@H](C)OC(=O)[C@H]([C@@H](C)CC)NC1=O
16
CC[C@H](C)[C@H](NC(=O)[C@@H](Cc1ccccc1)NC)C(=O)N[C@@H](CO)C(=O)N[C@H](CCC(N)=O)C(=O)N[C@@H](C(=O)N[C@H](C(=O)N[C@@H](CO)C(=O)N[C@H]1C(=O)N[C@@H](CCCNC(=N)N)C(=O)N[C@@H](C2CCCCC2)C(=O)N[C@@H]([C@@H](C)CC)C(=O)O[C@H]1C)[C@@H](C)CC)[C@@H](C)CC
0.5
CCC[C@@H]1NC(=O)[C@H](CCCNC(=N)N)NC(=O)[C@H](NC(=O)[C@H](CO)NC(=O)[C@@H](NC(=O)[C@H](NC(=O)[C@@H](CCCNC(=N)N)NC(=O)[C@H](CO)NC(=O)[C@@H](NC(=O)[C@@H](Cc2ccccc2)NC)[C@@H](C)CC)[C@@H](C)CC)[C@@H](C)CC)[C@H](C)OC(=O)[C@H]([C@@H](C)CC)NC1=O
0.5
CC[C@H](C)[C@H](NC(=O)[C@@H](Cc1ccccc1)NC)C(=O)N[C@@H](CO)C(=O)N[C@H](CCCNC(=N)N)C(=O)N[C@@H](C(=O)N[C@H](C(=O)N[C@@H](CO)C(=O)N[C@H]1C(=O)N[C@@H](C)C(=O)N[C@@H](C2CCCCC2)C(=O)N[C@@H]([C@@H](C)CC)C(=O)O[C@H]1C)[C@@H](C)CC)[C@@H](C)CC
0.25
COc1c(N2C[C@@H]3CCCN[C@@H]3C2)c(F)cc2c(=O)c(C(=O)O)cn(C3CC3)c12 [MOXIFLOXACIN]
4
CC[C@H](C)[C@H](NC(=O)[C@@H](Cc1ccccc1)NC)C(=O)N[C@@H](CCCNC(=N)N)C(=O)N[C@H](CCC(N)=O)C(=O)N[C@@H](C(=O)N[C@H](C(=O)N[C@@H](CO)C(=O)N[C@H]1C(=O)N[C@@H](C)C(=O)N[C@@H](C2CCCCC2)C(=O)N[C@@H]([C@@H](C)CC)C(=O)O[C@H]1C)[C@@H](C)CC)[C@@H](C)CC
0.125
CC[C@H](C)[C@H](NC(=O)[C@@H](Cc1ccccc1)NC)C(=O)N[C@@H](CCCNC(=N)N)C(=O)N[C@H](CCC(N)=O)C(=O)N[C@@H](C(=O)N[C@H](C(=O)N[C@@H](CO)C(=O)N[C@H]1C(=O)N[C@@H](CCCNC(=N)N)C(=O)N[C@@H](C2CCCCC2)C(=O)N[C@@H]([C@@H](C)CC)C(=O)O[C@H]1C)[C@@H](C)CC)[C@@H](C)CC
0.5
CC[C@H](C)[C@H](NC(=O)[C@@H](Cc1ccccc1)NC)C(=O)N[C@@H](CO)C(=O)N[C@H](CCC(N)=O)C(=O)N[C@@H](C(=O)N[C@H](C(=O)N[C@@H](CO)C(=O)N[C@H]1C(=O)N[C@@H](C)C(=O)N[C@@H](C2CCCCC2)C(=O)N[C@@H]([C@@H](C)CC)C(=O)O[C@H]1C)[C@@H](C)CC)[C@@H](C)CC
0.125
CCCCCCCCCC(=O)N[C@@H](Cc1c[nH]c2ccccc12)C(=O)N[C@H](CC(N)=O)C(=O)N[C@@H](CC(=O)O)C(=O)N[C@@H]1C(=O)NCC(=O)N[C@@H](CCCN)C(=O)N[C@@H](CC(=O)O)C(=O)N[C@H](C)C(=O)N[C@@H](CC(=O)O)C(=O)NCC(=O)N[C@H](CO)C(=O)N[C@@H]([C@H](C)CC(=O)O)C(=O)N[C@@H](CC(=O)c2ccccc2N)C(=O)O[C@@H]1C
0.5

// MIC lookup, key: CC[C@H](C)[C@H](NC(=O)[C@@H](Cc1ccccc1)NC)C(=O)N[C@@H](CO)C(=O)N[C@H](CCCNC(=N)N)C(=O)N[C@@H](C(=O)N[C@H](C(=O)N[C@@H](CO)C(=O)N[C@H]1C(=O)N[C@@H](CCCNC(=N)N)C(=O)N[C@@H](C2CCCCC2)C(=O)N[C@@H]([C@@H](C)CC)C(=O)O[C@H]1C)[C@@H](C)CC)[C@@H](C)CC
0.25

Further, for CCC[C@@H]1NC(=O)[C@H](C)NC(=O)[C@H](NC(=O)[C@H](CO)NC(=O)[C@@H](NC(=O)[C@H](NC(=O)[C@@H](CCCNC(=N)N)NC(=O)[C@H](CO)NC(=O)[C@@H](NC(=O)[C@@H](Cc2ccccc2)NC)[C@@H](C)CC)[C@@H](C)CC)[C@@H](C)CC)[C@H](C)OC(=O)[C@H]([C@@H](C)CC)NC1=O ?
0.125

----------
system: Staphylococcus epidermidis; experiment: Antibacterial activity against Staphylococcus epidermidis 12228 assessed as inhibition of bacterial growth; assay type: functional
Attribute: MIC
Dear colleague, please return just the value in µg/mL, with no unit written.

A selection of reference data follows.
CC[C@H](C)[C@H](NC(=O)[C@@H](Cc1ccccc1)NC)C(=O)N[C@@H](CO)C(=O)N[C@H](CCCNC(=N)N)C(=O)N[C@@H](C(=O)N[C@H](C(=O)N[C@@H](CO)C(=O)N[C@H]1C(=O)N[C@@H](CCCNC(=N)N)C(=O)N[C@@H](C2CCCCC2)C(=O)N[C@@H]([C@@H](C)CC)C(=O)O[C@H]1C)[C@@H](C)CC)[C@@H](C)CC
0.063
CCC[C@@H]1NC(=O)[C@H](C)NC(=O)[C@H](NC(=O)[C@H](CO)NC(=O)[C@@H](NC(=O)[C@H](NC(=O)[C@@H](CCC(N)=O)NC(=O)[C@H](CO)NC(=O)[C@@H](NC(=O)[C@@H](Cc2ccccc2)NC)[C@@H](C)CC)[C@@H](C)CC)[C@@H](C)CC)[C@H](C)OC(=O)[C@H]([C@@H](C)CC)NC1=O
0.125
CC[C@H](C)[C@H](NC(=O)[C@@H](Cc1ccccc1)NC)C(=O)N[C@@H](CCCNC(=N)N)C(=O)N[C@H](CCC(N)=O)C(=O)N[C@@H](C(=O)N[C@H](C(=O)N[C@@H](CO)C(=O)N[C@H]1C(=O)N[C@@H](C)C(=O)N[C@@H](C2CCCCC2)C(=O)N[C@@H]([C@@H](C)CC)C(=O)O[C@H]1C)[C@@H](C)CC)[C@@H](C)CC
0.063

So what does the record say about MIC for CCC[C@@H]1NC(=O)[C@H](CCCNC(=N)N)NC(=O)[C@H](NC(=O)[C@H](CO)NC(=O)[C@@H](NC(=O)[C@H](NC(=O)[C@@H](CCCNC(=N)N)NC(=O)[C@H](CO)NC(=O)[C@@H](NC(=O)[C@@H](Cc2ccccc2)NC)[C@@H](C)CC)[C@@H](C)CC)[C@@H](C)CC)[C@H](C)OC(=O)[C@H]([C@@H](C)CC)NC1=O ?
0.063

Queued: CC[C@H](C)[C@H](NC(=O)[C@@H](Cc1ccccc1)NC)C(=O)N[C@@H](CCCNC(=N)N)C(=O)N[C@H](CCC(N)=O)C(=O)N[C@@H](C(=O)N[C@H](C(=O)N[C@@H](CO)C(=O)N[C@H]1C(=O)N[C@@H](CCCNC(=N)N)C(=O)N[C@@H](C2CCCCC2)C(=O)N[C@@H]([C@@H](C)CC)C(=O)O[C@H]1C)[C@@H](C)CC)[C@@H](C)CC
0.063

Thanks! And CCCCCCCCCC(=O)N[C@@H](Cc1c[nH]c2ccccc12)C(=O)N[C@H](CC(N)=O)C(=O)N[C@@H](CC(=O)O)C(=O)N[C@@H]1C(=O)NCC(=O)N[C@@H](CCCN)C(=O)N[C@@H](CC(=O)O)C(=O)N[C@H](C)C(=O)N[C@@H](CC(=O)O)C(=O)NCC(=O)N[C@H](CO)C(=O)N[C@@H]([C@H](C)CC(=O)O)C(=O)N[C@@H](CC(=O)c2ccccc2N)C(=O)O[C@@H]1C ?
0.125
